Value source: PubChem BioAssay (NCI)

System: SF-539 CNS
assay-remarks: NCI tumour cell line growth inhibition, 48 h
Entries and their TGI values follow.

Cc1ccncc1.[O]=[Ge].[O]=[Ge].[O]=[Ge].[O]=[Ge].[O]=[Ge].[O]=[Ge][OH].[O]=[Ge][OH]: > 100 µM
Nc1c(C(=O)Nc2cccc([N+](=O)[O-])c2)sc2nc3c(cc12)C(O)CCC3 (stereo not given): > 93.7 µM
COc1ccc(N2C(=O)c3c4c(c5c([nH]c6ncccc65)c3C2=O)CCC(C(C)(C)C)C4)cc1 (stereo not given): > 100 µM
COc1cc2c(cc1OC)C1c3ccccc3CCN1CC2 (stereo not given): 75.1 µM
C[C@@H](C(=O)Nc1ccc(Cl)cc1)C1CCC(c2ccnc3ccc(F)cc23)CC1 (stereo not given in full): 47.7 µM
CC1CCCCc2nc3c(c(=O)n21)CCCC3 (stereo not given): > 100 µM
CC1(C)C(c2ccccc2)=[N+]([O-])C(C)(C)N1O: > 10 µM
COc1cc(/C=C2\C(=O)N(C(=O)Cc3ccccc3)N=C2C)ccc1O: > 100 µM

Quick note, TGI for CCOP(=O)(OCC)C1C(CO)OC(n2ccc(=O)[nH]c2=O)C1O (stereo not given) landed at > 100 µM

According to the records, this molecule "C[N+](C)(C)CC(=O)N/N=C(/Cc1nc2c3c(ccc2[nH]c1=O)C(=O)c1ccccc1C3=O)C(=O)Nc1ccc(Cl)c(Cl)c1" displays TGI of > 100 µM
